For each record, write down the corresponding Activity.
- subject of test: Melanocortin receptor 4 (Mus musculus) (UniProt P56450)
- Sequence (P56450 whole entry): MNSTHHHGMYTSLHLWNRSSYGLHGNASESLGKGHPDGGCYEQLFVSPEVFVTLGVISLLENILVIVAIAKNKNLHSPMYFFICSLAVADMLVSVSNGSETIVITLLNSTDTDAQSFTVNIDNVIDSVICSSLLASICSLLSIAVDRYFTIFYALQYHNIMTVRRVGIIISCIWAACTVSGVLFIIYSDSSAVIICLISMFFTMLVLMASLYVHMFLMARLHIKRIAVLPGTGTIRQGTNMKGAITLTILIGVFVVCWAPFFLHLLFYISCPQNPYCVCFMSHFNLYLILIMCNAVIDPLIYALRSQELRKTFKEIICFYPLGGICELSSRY
- assay summary: Agonist activity at mouse MC4R expressed in HEK293 cells assessed as increase in forskolin-induced cAMP accumulation at 100 uM preincubated for 2 hrs followed by biotinylated cAMP addition and subsequent incubation for 2 hrs by AlphaScreen assay relative to NDP-MSH
- Type: functional, cell-based
Square brackets hold non-standard residues; d marks the D form. Peptide text beside a SMILES is read from it. Dap = NC[C@H](N)C(=O)O
Write the number in % without appending the unit.

Exercise: Endpoint output: Activity of N=C(N)NCCC[C@@H]1NC(=O)[C@@H](Cc2ccccc2)NC(=O)[C@H](Cc2cnc[nH]2)NC(=O)[C@@H]2CCCN2C(=O)[C@H]2CCCN2C(=O)[C@H](Cc2c[nH]c3ccccc23)NC1=O (cyclo(H[dF]RW[dP]P)) . Value?
Solution: 65

Exercise: Same again, this time with N=C(N)NCCC[C@@H]1NC(=O)[C@@H](Cc2ccccc2)NC(=O)[C@@H]2CCCN2C(=O)[C@H]2CCCN2C(=O)[C@H](Cc2c[nH]c3ccccc23)NC1=O (cyclo(P[dF]RW[dP]))
Solution: 50

Exercise: Same again, this time with N=C(N)NCCC[C@@H]1NC(=O)[C@@H](Cc2ccccc2)NC(=O)[C@@H]2CCCN2C(=O)[C@H]2CCCN2C(=O)[C@H](CN)NC(=O)[C@H](Cc2c[nH]c3ccccc23)NC1=O (cyclo(P[dF]RW[Dap][dP]))
Solution: 35

Exercise: Same again, this time with N=C(N)NCCC[C@@H]1NC(=O)[C@@H](Cc2ccccc2)NC(=O)[C@@H]2CCCN2C(=O)[C@H]2CCCN2C(=O)[C@H](CC(N)=O)NC(=O)[C@H](Cc2c[nH]c3ccccc23)NC1=O (cyclo(P[dF]RWN[dP]))
Solution: 85

* * *

- Organism: Mus musculus
- assay summary: Selectivity ratio of EC50 for mouse MC3R to EC50 for mouse MC5R
Square brackets hold non-standard residues; d marks the D form. Peptide text beside a SMILES is read from it. Dap = NC[C@H](N)C(=O)O
readout label: Ratio EC50

Exercise: Endpoint output: Ratio EC50 of C[C@@H]1NC(=O)[C@H](CN)NC(=O)[C@H](Cc2c[nH]c3ccccc23)NC(=O)[C@H](CCCNC(=N)N)NC(=O)[C@@H](Cc2ccccc2)NC(=O)[C@@H]2CCCN2C(=O)[C@H]2CCCN2C1=O (cyclo(P[dF]RW[Dap]A[dP])) . Value?
Solution: > 1000

Exercise: Same again, this time with C[C@@H]1NC(=O)[C@H](CC(N)=O)NC(=O)[C@H](Cc2c[nH]c3ccccc23)NC(=O)[C@H](CCCNC(=N)N)NC(=O)[C@@H](Cc2ccccc2)NC(=O)[C@@H]2CCCN2C(=O)[C@H]2CCCN2C(=O)[C@H](Cc2ccccc2)NC1=O (cyclo(P[dF]RWNAF[dP]))
Solution: > 1000

Exercise: Same again, this time with C[C@@H]1NC(=O)[C@H](CN)NC(=O)[C@H](Cc2c[nH]c3ccccc23)NC(=O)[C@H](CCCNC(=N)N)NC(=O)[C@@H](Cc2ccccc2)NC(=O)[C@H](Cc2cnc[nH]2)NC(=O)[C@@H]2CCCN2C(=O)[C@H]2CCCN2C1=O (cyclo(H[dF]RW[Dap]A[dP]P))
Solution: > 100
